testSystem: Endonuclease III-like protein 1 (Homo sapiens)
measurementContext: Compound Concentration 10.0 uM, Hit No
Classification field: 1 (yes) = inhibition at or over 10%; 0 (no) = inhibition under 10%.

Exercise: Check if inhibition >= 10% (inclusive). Item: CN(C)CC#Cc1ccc(OCCCc2sc(N3CCc4cccc(C(=O)Nc5nc6ccccc6s5)c4C3)nc2C(=O)O)c(F)c1
Solution: 0 (no)

Exercise: Check if inhibition >= 10% (inclusive). Item: CCCCC1=NC2(CCCC2)C(=O)N1Cc1ccc(-c2ccccc2-c2nnn[nH]2)cc1
Solution: 0 (no)

Exercise: Check if inhibition >= 10% (inclusive). Item: Cc1cc(OC2CCS(=O)(=O)CC2)cc(C)c1-c1cccc(COc2ccc(CCC(=O)O)c(F)c2)c1
Solution: 0 (no)

Exercise: Check if inhibition >= 10% (inclusive). Item: FC(F)(F)Oc1ccc(-c2ccc3nnc(C(F)(F)F)n3c2)cc1
Solution: 1 (yes)

Exercise: Check if inhibition >= 10% (inclusive). Item: O=C(NCCCn1ccnc1)c1cc2nc(-c3ccccc3)cc(-c3ccccc3)n2n1
Solution: 0 (no)

Exercise: Check if inhibition >= 10% (inclusive). Item: NC(=O)c1ccc(CNC(=O)NC[C@H]2CN(Cc3ccc(Cl)c(Cl)c3)CCO2)cc1
Solution: 1 (yes)

Exercise: Check if inhibition >= 10% (inclusive). Item: CC(C)C[C@@H](NC(=O)[C@H](Cc1ccccc1)NC(=O)CNC(=O)[C@@H](C)NC(=O)[C@@H](N)Cc1ccc(O)cc1)C(=O)O
Solution: 1 (yes)

Exercise: Check if inhibition >= 10% (inclusive). Item: Cn1ncnc1COc1nn2c(-c3c(F)cccc3F)nnc2cc1C1CCC1
Solution: 1 (yes)

Exercise: Check if inhibition >= 10% (inclusive). Item: Cc1cc(OCCCS(C)(=O)=O)cc(C)c1-c1cccc(COc2ccc3c(c2)OC[C@H]3CC(=O)O)c1
Solution: 1 (yes)

Exercise: Check if inhibition >= 10% (inclusive). Item: Cc1c(P(=S)(c2ccccc2)c2ccccc2)n2ccccc2[n+]1C/C=C/c1ccccc1
Solution: 1 (yes)

Exercise: Check if inhibition >= 10% (inclusive). Item: CC(=O)N1CCC(c2ccc(C(=O)NC3=NCCN3)cc2C(F)(F)F)CC1
Solution: 1 (yes)

Exercise: Check if inhibition >= 10% (inclusive). Item: CO[C@H]1CC[C@H](CNc2ccc(S(=O)(=O)NC(=O)c3ccc(N4CCN(CC5=C(c6ccc(Cl)cc6)CC(C)(C)CC5)CC4)cc3Oc3cnc4[nH]ccc4c3)cc2[N+](=O)[O-])CC1
Solution: 0 (no)

Exercise: Check if inhibition >= 10% (inclusive). Item: CCNC(=O)[C@H]1O[C@@H](n2cnc3c(N)ncnc32)[C@H](O)[C@@H]1O
Solution: 1 (yes)

Exercise: Check if inhibition >= 10% (inclusive). Item: CC[S+]([O-])c1nc(-c2cccc(OCc3ccccc3)c2)cc(C(F)(F)F)n1 (stereo unspecified)
Solution: 0 (no)

Exercise: Check if inhibition >= 10% (inclusive). Item: O=C(O)CCCCCC[C@H]1C(=O)NC(=O)N1CCC(O)C1CCCCC1 (stereo partly specified)
Solution: 1 (yes)

Exercise: Check if inhibition >= 10% (inclusive). Item: Cc1cnc(-c2cc(Cl)ccc2F)cc1-n1c(=O)n(CC(N)=O)c2cnccc21
Solution: 0 (no)

* * *

testSystem: Adenine DNA glycosylase (Homo sapiens) (UniProt Q9UIF7);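 further: human MUTYH activity read as 594 nm fluorescence from cleavage and release of a quenched DNA duplex, coupled with APE1 for strand incision, lower signal meaning inhibition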
Sequence (Q9UIF7 whole entry): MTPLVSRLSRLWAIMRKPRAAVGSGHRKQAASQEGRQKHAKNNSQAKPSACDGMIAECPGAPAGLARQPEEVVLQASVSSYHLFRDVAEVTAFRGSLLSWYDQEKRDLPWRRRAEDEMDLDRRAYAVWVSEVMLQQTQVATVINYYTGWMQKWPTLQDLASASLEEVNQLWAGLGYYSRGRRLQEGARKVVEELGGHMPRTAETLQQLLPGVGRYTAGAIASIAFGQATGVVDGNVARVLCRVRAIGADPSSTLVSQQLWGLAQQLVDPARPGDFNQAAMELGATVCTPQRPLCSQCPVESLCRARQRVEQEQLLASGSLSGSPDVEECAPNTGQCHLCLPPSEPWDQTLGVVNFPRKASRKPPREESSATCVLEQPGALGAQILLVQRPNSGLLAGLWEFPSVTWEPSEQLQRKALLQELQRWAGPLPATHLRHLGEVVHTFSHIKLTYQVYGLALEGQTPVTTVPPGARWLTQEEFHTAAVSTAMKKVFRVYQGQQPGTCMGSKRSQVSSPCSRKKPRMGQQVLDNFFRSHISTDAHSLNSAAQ
measurementContext: Compound Concentration 1.0 uM, Hit No
measuredQuantity: inhibition (%)
Give the value in % but do not write % after it.

Exercise: Provide value of inhibition for this record tested with Adenine DNA glycosylase (Homo sapiens) (UniProt Q9UIF7): NC1(c2ccc(-c3nc4c(O)ccnn4c3-c3ccccc3)cc2)CCC1
Solution: 23.6

Exercise: Provide value of inhibition for this record tested with Adenine DNA glycosylase (Homo sapiens) (UniProt Q9UIF7): C[C@@H](Oc1cc(-n2cnc3ccc(CN4CCN(C)CC4)cc32)sc1C(N)=O)c1ccccc1C(F)(F)F
Solution: 6.26

Exercise: Provide value of inhibition for this record tested with Adenine DNA glycosylase (Homo sapiens) (UniProt Q9UIF7): CN1CCN(C(=O)C(C)(C)c2ccc(C(=O)Nc3cn4cc(-c5cc(C(C)(C)C)cc(C(C)(C)C)c5)ccc4n3)cc2)CC1
Solution: -8.55

Exercise: Provide value of inhibition for this record tested with Adenine DNA glycosylase (Homo sapiens) (UniProt Q9UIF7): CNC(=O)Nc1ccc2c(c1)[C@@]1(CC2)OC(=O)N(CC(=O)N(Cc2ccc(F)cc2)[C@@H](C)C(F)(F)F)C1=O
Solution: 0.0592

Exercise: Provide value of inhibition for this record tested with Adenine DNA glycosylase (Homo sapiens) (UniProt Q9UIF7): COc1cc(Nc2ncc3c(n2)-c2ccc(Cl)cc2C(c2c(F)cccc2OC)=NC3)ccc1C(=O)O
Solution: -7.52

Exercise: Provide value of inhibition for this record tested with Adenine DNA glycosylase (Homo sapiens) (UniProt Q9UIF7): C[C@@H]1CCN(C(=O)CC#N)C[C@@H]1N(C)c1ncnc2[nH]ccc12
Solution: 9.35

Exercise: Provide value of inhibition for this record tested with Adenine DNA glycosylase (Homo sapiens) (UniProt Q9UIF7): CC(C)(O)c1ccc(N2Cc3c(ccnc3-c3ccc(F)cc3OCC(F)(F)F)C2=O)cc1
Solution: -6.44

Exercise: Provide value of inhibition for this record tested with Adenine DNA glycosylase (Homo sapiens) (UniProt Q9UIF7): Cc1cc(NC(=O)c2cccc(S(F)(F)(F)(F)F)c2)cc(-n2ccn3nc(-c4cccnc4)cc23)c1
Solution: 16

* * *

testSystem: Endonuclease 8-like 1 (Homo sapiens) (UniProt Q96FI4);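 further: fluorescence at 594 nm from quenched duplex DNA oligonucleotides released by NEIL1 cleavage and strand separation, reported as reduction of this enzyme activity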
Sequence (Q96FI4 whole entry): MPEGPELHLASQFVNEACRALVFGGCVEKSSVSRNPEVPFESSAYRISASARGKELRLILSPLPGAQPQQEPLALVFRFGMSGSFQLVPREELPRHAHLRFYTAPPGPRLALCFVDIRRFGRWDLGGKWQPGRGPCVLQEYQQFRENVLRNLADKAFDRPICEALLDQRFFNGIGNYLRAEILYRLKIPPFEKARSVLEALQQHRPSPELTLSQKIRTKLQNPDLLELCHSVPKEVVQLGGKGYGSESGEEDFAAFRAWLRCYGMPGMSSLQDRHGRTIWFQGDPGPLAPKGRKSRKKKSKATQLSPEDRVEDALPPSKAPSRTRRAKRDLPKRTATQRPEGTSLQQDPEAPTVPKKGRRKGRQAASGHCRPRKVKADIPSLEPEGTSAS
measurementContext: Compound Concentration 10.0 uM, Hit No
Would you mind telling me the reported inhibition of each entry?
Give the value in % but do not write % after it.

Exercise: Bench note: what inhibition did Cc1nc(C2CCN(C(=O)c3ccc(OC(F)(F)F)cc3N)CC2)c2ncc(N3CCN(C)CC3)cc2n1 show?
Solution: -5.75

Exercise: Bench note: what inhibition did Cc1c(C2=CCN(C(=O)N(C)C(C)C)CC2)nnn1-c1cccnc1F show?
Solution: -0.649

Exercise: Bench note: what inhibition did COc1ccccc1-c1cc(Nc2cccc(CS(N)(=O)=O)c2)ncn1 show?
Solution: -4.75

* * *

testSystem: G/T mismatch-specific thymine DNA glycosylase (Homo sapiens);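 further: human TDG cleavage of quenched duplex DNA oligonucleotides coupled to APE1, strand release read as fluorescence at 594 nm, inhibition of TDG activity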
measurementContext: Compound Concentration 10.0 uM, Hit No
Classification field: t = inhibition at or over 40%; f = inhibition under 40%.

Exercise: Check if inhibition >= 40% (inclusive). Item: CC(C)C[C@@H](NC(=O)[C@H](Cc1ccccc1)NC(=O)CNC(=O)[C@@H](C)NC(=O)[C@@H](N)Cc1ccc(O)cc1)C(=O)O
Solution: f

Exercise: Check if inhibition >= 40% (inclusive). Item: CCOc1cc(N2CCC(O)CC2)ccc1Nc1ncc2c(n1)N(C)c1ccccc1C(=O)N2C
Solution: t

Exercise: Check if inhibition >= 40% (inclusive). Item: COC(c1ccccc1)(c1ccccc1)[C@H](Oc1nc(C)cc(C)n1)C(=O)O
Solution: f

Exercise: Check if inhibition >= 40% (inclusive). Item: c1cc(CN2CCCNCCNCCCNCC2)ccc1CN1CCCNCCNCCCNCC1
Solution: f

* * *

Would you mind telling me the reported inhibition of each entry?
testSystem: Endonuclease III-like protein 1 (Homo sapiens);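 further: enzyme assay tracking NTHL1 cutting and release of a quenched double-stranded DNA oligo substrate, read as fluorescence at 594 nm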
measurementContext: Compound Concentration 10.0 uM, Hit No
Give the value in % but do not write % after it.

Exercise: Bench note: what inhibition did CC(C)S(=O)(=O)c1ccc2nccc(Nc3ccc4scnc4c3)c2c1 show?
Solution: 9.85

Exercise: Bench note: what inhibition did CN1CCC(=C2c3ccccc3CC(=O)c3sccc32)CC1 show?
Solution: -2.47

Exercise: Bench note: what inhibition did CCCCCCCCCCCCC/C=C/[C@@H](O)[C@@H](N)COP(=O)(O)O show?
Solution: -7.6

Exercise: Bench note: what inhibition did CCc1nnc(NS(=O)(=O)c2ccc(NC(=S)NC(=O)/C=C/c3ccc(F)cc3)cc2)s1 show?
Solution: 23.2

Exercise: Bench note: what inhibition did COc1cc(NC(=O)CCN2CCC(OC(=O)Nc3ccccc3-c3ccccc3)CC2)c(Cl)cc1CNC[C@H](O)c1ccc(O)c2[nH]c(=O)ccc12 show?
Solution: 9.99

Exercise: Bench note: what inhibition did c1ccc(Cn2c(N3CCNCC3)nc3ccccc32)cc1 show?
Solution: 25.3

Exercise: Bench note: what inhibition did CSCC[C@H](NC(=O)[C@H](Cc1ccccc1)NC(=O)[C@H](Cc1c[nH]cn1)NC(=O)CNC(=O)[C@@H](NC(=O)[C@H](C)NC(=O)[C@H](Cc1c[nH]c2ccccc12)NC(=O)[C@H](CC(C)C)NC(=O)[C@H](CC(N)=O)NC(=O)CN)[C@@H](C)O)C(N)=O show?
Solution: 8.82

Exercise: Bench note: what inhibition did COC(=O)c1sccc1S(=O)(=O)Nc1ccc(Nc2ccccc2)cc1OC show?
Solution: -7.86

Exercise: Bench note: what inhibition did O=C(N1CCS(=O)(=O)CC1)N1C[C@H](c2ccc(OC(F)(F)F)cc2)C[C@H](c2nc(C3CC3)no2)C1 show?
Solution: -9.83

Exercise: Bench note: what inhibition did Cn1c(=O)n(CCCO)c(=O)c2c1nc(Oc1cccc(Cl)c1)n2Cc1ccc(Cl)cc1 show?
Solution: 12.1

Exercise: Bench note: what inhibition did CCCC(=O)C1CCN(c2ncnc3c2CN(C(=O)c2ccc(-c4ccccc4)cc2)CC3)CC1 show?
Solution: 12.1

Exercise: Bench note: what inhibition did O=C1CC[C@@]2(O)[C@H]3Cc4ccc(O)c5c4[C@@]2(CCN3CC2CC2)[C@H]1O5 show?
Solution: -4.39

Exercise: Bench note: what inhibition did C/N=C(/NC#N)NCCSCc1csc(NC(=N)N)n1 show?
Solution: -9.8

Exercise: Bench note: what inhibition did Cc1cc(C)cc(C(=O)N(C)[C@H](Cc2ccc(-c3ccccc3)cc2)C(=O)N[C@@H](Cc2c[nH]c3ccccc23)C(=O)O)c1 show?
Solution: 2.66

Exercise: Bench note: what inhibition did O=c1ccc2ccc(OCCCCN3CCN(c4cccc5sccc45)CC3)cc2[nH]1 show?
Solution: 4.86

Exercise: Bench note: what inhibition did COC(c1ccccc1)(c1ccccc1)[C@H](Oc1nc(C)cc(C)n1)C(=O)O show?
Solution: 6.32

Exercise: Bench note: what inhibition did CCc1cc2c(cc1CC)CC(NC[C@H](O)c1ccc(O)c3[nH]c(=O)ccc13)C2 show?
Solution: 12.9

Exercise: Bench note: what inhibition did CCCCCCCCCCCCCCC[C@@H](O)[C@@H](N)COP(=O)(O)O show?
Solution: 5.59

Exercise: Bench note: what inhibition did O=C(O)CCC/C=C\C[C@H]1C(=O)C[C@@H](O)[C@@H]1/C=C/[C@@H](O)CCc1ccccc1 show?
Solution: 14.6

Exercise: Bench note: what inhibition did C=CC(=O)Nc1ccc2[nH]c(=O)n(C3CCN(Cc4ccc(-c5ccc6c(c5)NC(=O)CO6)cc4)CC3)c2c1 show?
Solution: -2.83

Exercise: Bench note: what inhibition did COc1ccc(S(=O)(=O)N2C(=O)[C@@](c3ccccc3OC)(N3C[C@H](O)C[C@H]3C(=O)N(C)C)c3cc(Cl)ccc32)c(OC)c1 show?
Solution: -0.258

Exercise: Bench note: what inhibition did CN1[C@@H](CC(=O)c2ccccc2)CCC[C@H]1C[C@H](O)c1ccccc1 show?
Solution: -8.51
